Experiment: self-splicing fitness, log relative to wild type (ln ratio); higher = more splicing; Tetrahymena group I intron in knt gene, E. coli kanamycin selection, DiMSum; sequences stand for … in CUCUCU…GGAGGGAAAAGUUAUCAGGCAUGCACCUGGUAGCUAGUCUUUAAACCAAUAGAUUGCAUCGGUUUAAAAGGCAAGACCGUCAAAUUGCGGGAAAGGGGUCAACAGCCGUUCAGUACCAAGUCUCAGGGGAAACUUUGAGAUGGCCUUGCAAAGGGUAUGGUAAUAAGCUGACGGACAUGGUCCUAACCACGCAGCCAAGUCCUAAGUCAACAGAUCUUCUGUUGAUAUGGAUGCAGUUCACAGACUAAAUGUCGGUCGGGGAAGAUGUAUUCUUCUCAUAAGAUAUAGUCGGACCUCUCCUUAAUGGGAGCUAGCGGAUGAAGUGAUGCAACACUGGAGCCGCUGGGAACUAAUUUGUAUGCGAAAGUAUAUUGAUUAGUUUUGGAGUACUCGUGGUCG;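 further: selection with 25 µg/mL kanamycin versus none on LB agar overnight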
Details: 30 °C
Lab note: anything with self-splicing fitness (ln) at or over -0.8 counts as criterion met; the rest go in criterion not met.

Ask: Is it the case that UGUUAGCAAUAUUACGUCUG has self-splicing fitness (ln) reaching or exceeding -0.8?
Reply: criterion met

Ask: Is it the case that GAAGAGCAAUAUUACGGCGG has self-splicing fitness (ln) reaching or exceeding -0.8?
Reply: criterion not met

Ask: Is it the case that UUGCAGCAAUAUUACGUCGC has self-splicing fitness (ln) reaching or exceeding -0.8?
Reply: criterion not met

Ask: Is it the case that GUACAGCAAUAUUACGCACG has self-splicing fitness (ln) reaching or exceeding -0.8?
Reply: criterion not met

Ask: Is it the case that CGGCAGCAAUAUUACGCAAA has self-splicing fitness (ln) reaching or exceeding -0.8?
Reply: criterion not met

Ask: Is it the case that UCUCAGCAAUAUUACGGGCA has self-splicing fitness (ln) reaching or exceeding -0.8?
Reply: criterion met

Ask: Is it the case that CGUAAGCAAUAUUACGCGGG has self-splicing fitness (ln) reaching or exceeding -0.8?
Reply: criterion not met
